Tested on: Escherichia coli BW25113
Assay Name: plate-normalized OD600 growth (mean of duplicates) (OD600 (normalized)); higher = more growth (less inhibition)
Measurement Parameters: temperature: 15°C; 48 h; 10 µM
The full ranking holds about 2,300 compounds; the median of “plate-normalized OD600 growth (mean of duplicates)” is about 0.29, and the lowest 2% start at about 0.22. Many of the other results were omitted from the sample, so the lowest values are more common in it than they were.
Record form. Attribute: plate-normalized OD600 growth. Fill in for each entry.

Example entries begin here.
O=C(NC(=S)Nc1ccc(Cc2ccncc2)cc1)c1cccc2ccccc12; 0.259
CC1CCN(CCC(=O)Nc2ccc(Cl)cc2)CC1; 0.261
CC1(O)N(CCN)C(=O)OC12CCCCC2 (configuration not stated); 0.269
NC(=O)C1CCN(CCC(=O)Nc2ccccc2)CC1; 0.208
CCc1c(C)nc2cc(-c3ccc(Cl)cc3)[nH]n2c1=O; 0.214
N/C(=N\OC(=O)c1ccno1)c1ccc(C(F)(F)F)cc1; 0.253
O=C(CSc1nc2ccccc2s1)Nc1cccn2cc(-c3ccccc3)nc12; 0.263
CCc1c(C)nc2[nH]nc(-c3ccccc3C)n2c1=O; 0.245
Cc1cc(C(O)(C(F)(F)F)C(F)(F)F)cc(C)c1O; 0.249
Cc1cc(=O)n2c(-c3ccc(Cl)cc3)csc2n1; 0.239

Here are 2 compounds. What values of plate-normalized OD600 growth were reported for them?
1. COc1ccc(C(=O)NCC(=O)N/N=C(\C)c2cccc(N)c2)cc1OC
2. CCOC(=O)/C(C(C)=O)=C1/SCC(C)S1 (configuration not stated)

## Result
0.249
0.235

* * *

Record form. Attribute: plate-normalized OD600 growth. Fill in for each entry.
Tested on: Escherichia coli BW25113
Assay Name: plate-normalized OD600 growth (mean of duplicates) (OD600 (normalized)); higher = more growth (less inhibition)
Measurement Parameters: temperature: 37°C; 24 h; 10 µM
The full ranking holds about 2,300 compounds; the median of “plate-normalized OD600 growth (mean of duplicates)” is about 0.29, and the lowest 2% start at about 0.22. Shown is part of a subset that was picked to be rich in the lowest values.
One number for each entry.

Example entries begin here.
CC1=C(C#N)C(c2c(C)[nH]n(-c3ccccc3)c2=O)(C(F)(F)F)C(=O)N1 (stereo unspecified); 0.62
CC1(O)N(CCN)C(=O)OC12CCCCC2 (stereo unspecified); 0.626
CN1N=C(SCc2ccc(Cl)cc2Cl)Sc2c1cnn(C)c2=O; 0.591
O=C(Nc1ccc(F)c(Cl)c1)c1ccc(N2C(=O)/C(=C/c3ccccc3)N=C2c2ccccc2)cc1; 0.653
C=CCn1c(CSc2ccccc2[N+](=O)[O-])n[nH]c1=S; 0.606

Here are 6 compounds. What values of plate-normalized OD600 growth were reported for them?
1. COC(=O)CSc1nc(N)cc(=O)[nH]1
2. CCOC(=O)c1ccc(-c2ccc(/C=C(\C#N)C(=O)NC3CCCCC3)o2)cc1
3. Cc1ccc(NC(=O)Nc2ccc(C)c(NC(=O)Nc3ccc(C)cc3)c2)cc1
4. CCCCOc1cccc(NC(=O)CCSc2nccn2C)c1
5. CC1(C)OC(=O)N(CCCCCCN2C(=O)OC(C)(C)C2(C)O)C1(C)O (stereo unspecified)
6. O=[N+]([O-])c1cnc(Sc2n[nH]c(-c3cccs3)n2)s1

## Result
0.605
0.604
0.578
0.643
0.652
0.607
